target: human GLP-1R receptor (Homo sapiens, UniProt P43220, L260F); experiment: CHOK1 GLP-1R cAMP Assay; conditions: CHO-K1 cell line stably expressing human GLP-1R; HTRF cAMP detection
Sequence (P43220 24-463 L260F): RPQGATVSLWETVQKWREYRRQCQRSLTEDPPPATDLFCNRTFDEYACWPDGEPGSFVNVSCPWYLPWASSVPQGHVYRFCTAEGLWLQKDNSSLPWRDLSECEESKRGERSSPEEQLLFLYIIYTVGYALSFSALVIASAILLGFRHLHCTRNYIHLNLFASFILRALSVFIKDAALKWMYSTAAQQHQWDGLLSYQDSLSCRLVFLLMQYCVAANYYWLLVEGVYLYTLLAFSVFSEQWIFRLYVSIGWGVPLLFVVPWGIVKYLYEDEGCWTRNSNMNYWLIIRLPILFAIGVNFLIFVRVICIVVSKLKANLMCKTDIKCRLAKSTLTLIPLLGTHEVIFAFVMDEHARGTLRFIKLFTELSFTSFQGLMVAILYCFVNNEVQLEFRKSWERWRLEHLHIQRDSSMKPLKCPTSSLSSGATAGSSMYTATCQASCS
Observation Type: EC50 (µM)

Field: example entries. Status: answers known.
>  <Molecule>
C[C@]1(c2ccc(Cl)cn2)Oc2cccc(N3CCN(Cc4nc5c(F)cc(C(=O)O)cc5n4C[C@@H]4CCO4)[C@H]4COC[C@H]43)c2O1 (single isomer, unassigned) [Example 9c]

>  <Observation Type>
EC50

>  <Quantitative Readout>
0.57

$$$$
>  <Molecule>
C[C@]1(c2ccc(Cl)cn2)Oc2cccc(N3CCN(Cc4nc5ccc(C(=O)O)cc5n4CCn4cccn4)[C@H]4COC[C@H]43)c2O1 (single isomer, unassigned)

>  <Observation Type>
EC50

>  <Quantitative Readout>
0.16

$$$$
>  <Molecule>
C[C@]1(c2ccc(Cl)cn2)Oc2cccc(N3CCN(Cc4nc5c(F)cc(C(=O)O)cc5n4CC4(CC#N)CC4)[C@H]4COC[C@H]43)c2O1 (single isomer, unassigned)

>  <Observation Type>
EC50

>  <Quantitative Readout>
0.003

$$$$

(1) COc1cc(C(=O)O)cc2c1nc(CN1CCN(c3cccc4c3O[C@@](C)(c3ccc(Cl)cc3F)O4)[C@@H]3COC[C@@H]31)n2C[C@@H]1CCO1 (single isomer, unassigned) [Example 3b]
(2) C[C@]1(c2ccc(Cl)cn2)Oc2cccc(N3CCN(Cc4nc5c(F)cc(C(=O)O)cc5n4CCn4cccn4)[C@H]4COC[C@H]43)c2O1 (single isomer, unassigned)
(3) C[C@]1(c2ccc(Cl)cc2F)Oc2cccc(N3CCN(Cc4nc5ccc(C(=O)O)cc5n4C[C@@H]4CCO4)[C@H]4COC[C@H]43)c2O1 (single isomer, unassigned) [Example 6c]
(4) COc1cc(C(=O)O)cc2c1nc(CN1CCN(c3cccc4c3OC(C)(c3ccc(Cl)cc3F)O4)[C@@H]3COC[C@@H]31)n2C[C@@H]1CCCO1 (relative stereo)
Incoming: List the 4 entries from lowest EC50 to highest EC50 value. As an answer, provide the labels arranged in the order called for.
Outgoing: 4, 3, 1, 2
(4: 0.002 µM, 3: 0.039 µM, 1: 0.061 µM, 2: 0.096 µM)

----------
target: human GLP-1R receptor (Homo sapiens, UniProt P43220, L260F); experiment: CHOK1 GLP-1R cAMP Assay; settings: CHO-K1 cell line stably expressing human GLP-1R; HTRF cAMP detection
pEC50: −log10 of the molar value.
Observation Type: pEC50

Field: example entries. Status: answers known.
>  <Compound>
C[C@]1(c2ccc(Cl)cn2)Oc2cccc(N3CCN(Cc4nc5c(Cl)cc(C(=O)O)cc5n4CC4(C#N)CC4)[C@H]4COC[C@H]43)c2O1 (single isomer, unassigned) [Example 23a]

>  <Tested On>
human GLP-1R receptor (Homo sapiens, UniProt P43220, L260F)

>  <Quantitative Readout>
8.74

$$$$
>  <Compound>
C[C@]1(c2ccc(Cl)cn2)Oc2cccc(N3CCN(Cc4nc5c(Cl)cc(C(=O)O)cc5n4C[C@@H]4CCO4)[C@H]4COC[C@H]43)c2O1 (single isomer, unassigned) [Example 14a]

>  <Tested On>
human GLP-1R receptor (Homo sapiens, UniProt P43220, L260F)

>  <Quantitative Readout>
8.82

$$$$

(P) C[C@]1(c2ccc(Cl)cn2)Oc2cccc(N3CCN(Cc4nc5ccc(C(=O)O)cc5n4CC4(C#N)CC4)[C@H]4COC[C@H]43)c2O1 (single isomer, unassigned) [Example 26]
(Q) COc1cc(C(=O)O)cc2c1nc(CN1CCN(c3cccc4c3O[C@@](C)(c3ccc(Cl)cn3)O4)[C@@H]3COC[C@@H]31)n2C[C@@H]1CCO1 (single isomer, unassigned) [Example 1a]
(R) C[C@@]1(c2ccc(Cl)cc2F)Oc2cccc(N3CCN(Cc4nc5c(Cl)cc(C(=O)O)cc5n4C[C@@H]4CCO4)[C@@H]4COC[C@@H]43)c2O1 (relative stereo) [Example 15a]
Incoming: List the 3 entries from lowest pEC50 to highest pEC50 value. As an answer, provide the labels arranged in the order called for.
Outgoing: Q, P, R
